# experimental target: human D2-long dopamine receptor (Homo sapiens (Human))
# Sequence (P14416 whole entry): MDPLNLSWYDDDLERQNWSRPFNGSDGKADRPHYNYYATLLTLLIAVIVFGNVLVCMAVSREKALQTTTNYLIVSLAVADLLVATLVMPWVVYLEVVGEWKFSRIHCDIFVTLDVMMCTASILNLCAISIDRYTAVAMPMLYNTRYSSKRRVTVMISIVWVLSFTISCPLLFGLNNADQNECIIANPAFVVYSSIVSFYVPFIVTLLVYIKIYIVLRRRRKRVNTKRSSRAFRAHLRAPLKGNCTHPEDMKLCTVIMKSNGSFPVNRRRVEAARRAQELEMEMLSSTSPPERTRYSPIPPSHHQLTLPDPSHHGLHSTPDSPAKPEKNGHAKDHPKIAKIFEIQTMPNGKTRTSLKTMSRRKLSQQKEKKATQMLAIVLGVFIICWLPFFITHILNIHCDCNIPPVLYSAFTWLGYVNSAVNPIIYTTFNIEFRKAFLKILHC
# assay procedure: Radioligand binding (125I-IABN competition), D2
# protocol conditions: HEK cell membranes expressing human D2-long
# Method: The affinities of the target compounds were determined using radioligand binding experiments. […] Competition curves were modeled for a single site. Data from competition dose-response curves were analyzed using Tablecurve program (Jandel). IC50 values were converted to equilibrium dissociation constants (Ki values) using the Cheng and Prusoff correction.
pKi: −log10 of the molar value.
Output yes for pKi not less than 6; output no otherwise.

CN(C)Cc1cccc2nc(C(=O)NCCCCN3CCN(c4cc(C(F)(F)F)nc(C(C)(C)C)n4)CC3)cn12 :: yes
CC(C)(C)c1nc(N2CCN(CCCCNC(=O)N3CCN(c4ccccc4C#N)CC3)CC2)cc(C(F)(F)F)n1 :: yes
Cc1cc(N2CCN(CCCCNC(=O)N3CCN(c4ccccc4)CC3)CC2)nc(C(C)(C)C)n1 :: yes
CC(C)(C)c1nc(N2CCN(CCCCNC(=O)N3CCN(CC4CC4)CC3)CC2)cc(C(F)(F)F)n1 :: yes
CC(C)(C)c1nc(N2CCN(CCCCNC(=O)N3CCC(Cc4ccccc4)CC3)CC2)cc(C(F)(F)F)n1 :: yes
Cc1cc(N2CCN(CCCCNC(=O)N3CCN(c4ccccc4)CC3)CC2)nc(C(F)(F)F)n1 :: no

Does the reported pKi for O=C(NCCCCN1CCN(c2ccnc3ccccc23)CC1)C1CCC(c2ccccc2)CC1 (centres unmarked) fall at or above the 6 mark?
no
